test system: Rattus norvegicus; test: Inhibition of carrageenan edema in adrenalectomized rats was determined after peroral administration; type: functional; conditions: po
# if measured ED50 < 10 mg/kg: Yes  # else: No

Req: For CC(C)n1c(=O)nc(-c2ccc(F)cc2)c2cc3c(cc21)OCO3 , is the recorded ED50 below the cut-off of 10 mg/kg?
Resp: No

Req: Lab note: ED50 threshold 10 mg/kg. Does this compound come in strictly under it? CCCCC1C(=O)N(c2ccccc2)N(c2ccccc2)C1=O [PHENYLBUTAZONE]
Resp: No

Req: Consider Cc1ccc2c(-c3ccccc3)nc(=O)n(C(C)C)c2c1 [PROQUAZONE] . Does its ED50 lie strictly below 10 mg/kg?
Resp: Yes

Req: Check if ED50 falls below 10 mg/kg for COc1ccc2c(c1)c(CC(=O)O)c(C)n2C(=O)c1ccc(Cl)cc1 [INDOMETHACIN] .
Resp: Yes

Req: is_below(ED50, 10 mg/kg) for CC(C)n1c(=O)nc(-c2cccc(F)c2)c2cc3c(cc21)OCO3 ?
Resp: No

Req: Is 10 mg/kg strictly greater than the compound's reported ED50? compound: CC(C)n1c(=O)nc(-c2ccccc2)c2cc3c(cc21)OCO3
Resp: Yes
